Cited source: PubChem BioAssay AID1362

Here, each record is paired with measured inhibition data.
ASSAY_TEXT: growth inhibition of WT strain, primary screen, mitochondrial fusion inhibitor project, WT and mutant strains, chemical genetic (AID 1362)
MEASUREMENT_CONDITIONS: mitochondrial fusion phenotypic screen, mutant strain inhibition; at 10 µM
The whole screen tested about 190,000 compounds, of which about 4,000 (2.1%) were called active. The entries come from a sample that favours actives as a whole.
Write down the numeric answer in % and omit the unit.

>>> print(df.to_string())
                                   compound  recorded_metric  reported
0  COc1ccc(Cl)cc1N(CC(=O)N1CCCCC1)S(C)(=O)=O       inhibition      0.08
1  COc1cccc(C(=O)Oc2cc(C)[nH]c(=O)c2[N+](=O)[O-])c1       inhibition     -9.84
2                NC(=O)C[n+]1cccc(C(N)=O)c1       inhibition     -23.1
3  CCCN(CCC)c1ccc(C(O)c2nnc(-c3ccccc3)o2)cc1 (stereo unspecified)       inhibition      31.6
4  NS(=O)(=O)c1ccc(N2C(=O)C3C4CC(C(Br)C4Br)C3C2=O)cc1 (stereo unspecified)       inhibition     -12.2

# evaluate next
Name the reported inhibition value associated with the compound `COc1ccc2c(c1)CCc1c(C(=O)Nc3c(C)n(C)n(-c4ccccc4)c3=O)noc1-2`
-13

---

ASSAY_TEXT: growth inhibition of WT strain, primary screen, mitochondrial fusion inhibitor project, WT and mutant strains, chemical genetic (AID 1362)
MEASUREMENT_CONDITIONS: mitochondrial fusion phenotypic screen, WT strain, growth inhibition; at 10 µM; stronger effect = higher value
Out of some 190,000 compounds screened, about 4,000 (2.1%) were called active. The entries come from a sample that favours actives as a whole.
RECORDED_METRIC: inhibition (%)
Your answer is read as %, so omit the unit and give the number.

Worked cases, inhibition given:
                                   compound  recorded_metric  reported
0  Cc1ccc(-n2nc3c(c2NC(=O)c2ccc4c(c2)OCO4)CSC3)c(C)c1       inhibition        84
1  Cc1cccc2cc3c(N)c(C(=O)N4CCCc5ccccc54)sc3nc12       inhibition      62.1
2       O=S(=O)(c1ccc(-c2ccccc2)cc1)N1CCCC1       inhibition     -9.92
3  O=C(NCc1nnc(SCC(=O)N2CCCc3ccccc32)o1)c1ccccc1F       inhibition      1.27
4  COc1ccc(OC)c(Cc2nnc(CCC(=O)NC3CCCC3)o2)c1       inhibition     -6.11
5  Cc1ccc(-n2c(SCC(=O)Nc3ncc(Cl)cc3Cl)nc3ccccc32)cc1       inhibition      74.2
6               Cc1occc1C(=O)N1CCCc2ccccc21       inhibition     -3.43
7  Cc1ccc(SCCC(=O)OCC(=O)Nc2ncc(Cl)cc2Cl)cc1       inhibition      2.29
8  COc1ccc(/C=N/NC(=O)CNC(=O)c2ccc(S(=O)(=O)N3CCCC3)cc2)c(OC)c1       inhibition      7.02
9     COCCn1c(Cc2cccn2C)nnc1SCC(=O)Nc1nccs1       inhibition      1.47

Suppose we examine the compound CCCN(CC1COc2ccccc2O1)C(=S)Nc1ccc(C)cc1 (configuration not stated) ; what inhibition value has been reported?
65.7

Reported inhibition for `Cc1cccc(-n2nc3c(c2NC(=O)c2ccc(Br)o2)CSC3)c1C` : what is it?
8.72
